- Assayed System: DNA ligase (Enterobacteria phage T4, UniProt P00970)
- Sequence (P00970 whole entry): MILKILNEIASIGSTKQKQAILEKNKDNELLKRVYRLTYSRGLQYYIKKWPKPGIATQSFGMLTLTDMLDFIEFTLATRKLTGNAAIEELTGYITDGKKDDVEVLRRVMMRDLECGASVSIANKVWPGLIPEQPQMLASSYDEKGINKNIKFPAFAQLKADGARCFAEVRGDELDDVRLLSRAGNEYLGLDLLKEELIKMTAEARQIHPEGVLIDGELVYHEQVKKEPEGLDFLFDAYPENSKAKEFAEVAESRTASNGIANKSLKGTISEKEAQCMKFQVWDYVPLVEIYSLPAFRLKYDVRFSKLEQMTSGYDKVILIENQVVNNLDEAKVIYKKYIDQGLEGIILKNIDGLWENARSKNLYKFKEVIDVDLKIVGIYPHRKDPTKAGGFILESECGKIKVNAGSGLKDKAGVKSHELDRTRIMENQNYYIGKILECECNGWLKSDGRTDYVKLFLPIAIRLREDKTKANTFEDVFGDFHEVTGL
- Test Details: Inhibition of nick joining activity of ATP-dependent bacteriophage T4 DNA ligase using [gamma32P]ATP-labeled nicked 40 bp DNA as substrate
- Set-up: species or system Tequatrovirus T4
# maps each entry to its IC50
State the answer as a number, implicitly in µM.

Example results:
| Molecule | Readout Label | Observed Result |
| --- | --- | --- |
| O=C1C2(CCCC13CC3c1ccccc1)CC2c1ccccc1 (centres undefined) | IC50 | 210 |
| O=C1C2(CCCC13CC3c1ccc(F)cc1)CC2c1ccc(F)cc1 (centres undefined) | IC50 | 33.4 |
| O=C1C2(CCCC13CC3c1ccc(Br)cc1)CC2c1ccc(Br)cc1 (centres undefined) | IC50 | 70.2 |

**Query** What measured IC50 goes with O=C1C2(CCCC13CC3c1ccc(Cl)cc1)CC2c1ccc(Cl)cc1 (centres undefined) ?
**Result** 20.2

====

- Test Details: Inhibition of nick joining activity of Mycobacterium tuberculosis full length NAD+-dependent DNA ligase using [gamma32P]ATP-labeled nicked 40 bp DNA as substrate
Readout Label: IC50 (µM)
State the answer as a number, implicitly in µM.

| Compound | IC50, µM |
| --- | --- |
| O=C1C2(CCCC13CC3c1ccccc1)CC2c1ccccc1 (centres undefined) | 180 |
| O=C1C2(CCCC13CC3c1ccc(F)cc1)CC2c1ccc(F)cc1 (centres undefined) | 8.6 |
| O=C1C2(CCCC13CC3c1ccc(Cl)cc1)CC2c1ccc(Cl)cc1 (centres undefined) | 12 |

Read the next record carefully.
**Query** What measured IC50 goes with O=C1C2(CCCC13CC3c1ccc(Br)cc1)CC2c1ccc(Br)cc1 (centres undefined) ?
**Result** 7.3

====

- Test Details: Competitive inhibition of nick joining activity of Mycobacterium tuberculosis full length NAD+-dependent DNA ligase using [gamma32P]ATP-labeled nicked 40 bp DNA as substrate by double reciprocal plot assay in presence of rising concentrations of NAD+
Readout Label: pKi
Would you please state pKi, meaning minus log10 of the concentration in mol/L, as a bare number?

**Query** What measured pKi goes with O=C1C2(CCCC13CC3c1ccc(Br)cc1)CC2c1ccc(Br)cc1 (stereo unspecified) ?
**Result** 5.23
